# SYSTEM UNDER TEST: HLA-A*02:01 (peptide-receptive MHC class I molecule, heavy chain with beta-2-microglobulin) (human)
# METHOD SUMMARY: UV-ligand exchange, anti-b2m ELISA; peptide exchange yield grade (>10% = +; >20% = ++; >50 = +++; >75% = ++++)
Entries and their peptide exchange yield

Guide cases for peptide exchange yield, answers given:
1) GLLSVELRV (synthetic peptide; source gene DCHS2) [GLLSVELRV (SEQ ID NO: 15)] | > 75%
2) ILAETQPEL (synthetic peptide; source gene STX18) [ILAETQPEL (SEQ ID NO: 48)] | 50 to 75%
3) GLIENTYQL (synthetic peptide; source gene RNF175) [GLIENTYQL (SEQ ID NO: 32)] | 50 to 75%

# input for lookup
q: For KLNSSIQYV (synthetic peptide; source gene PKHD1L1) [KLNSSIQYV (SEQ ID NO: 16)] , what is its reported peptide exchange yield?
a: 50 to 75%

Cited source: patent US20170260249A1
